The entries below are paired with their reported inhibition in vivo at 20 mg/kg.
system: Mus musculus; assay: Inhibition of xylene-induced ear edema in Kunming mouse at 20 mg/kg, po after 2 hrs relative to control; type: functional
Write down the numeric answer in % and omit the unit.

O=C(N[C@H]1CO[C@@H](c2cccc([N+](=O)[O-])c2)OC1)c1ccccc1 42.9

Q. Provide inhibition in vivo at 20 mg/kg, recorded with Mus musculus, of O=C(N[C@H]1CO[C@H](c2ccc([N+](=O)[O-])cc2)OC1)c1ccccc1
A. 48.7

Q. Report measured inhibition in vivo at 20 mg/kg on Mus musculus; entry: O=C(N[C@H]1CCO[C@@H](c2cccc([N+](=O)[O-])c2)OC1)c1ccccc1
A. 21.8

Q. Give inhibition in vivo at 20 mg/kg; test system Mus musculus; molecule O=C(Cc1ccccc1)N[C@H]1CCO[C@H](c2cccc([N+](=O)[O-])c2)OC1
A. 20.1

Q. State the measured inhibition in vivo at 20 mg/kg (Mus musculus) of O=C(Cc1ccccc1)N[C@H]1CO[C@@H](c2ccc(Cl)cc2)OC1
A. 43.6

Q. System Mus musculus. Read-out inhibition in vivo at 20 mg/kg. Item O=C(N[C@H]1CO[C@H](c2cccc([N+](=O)[O-])c2)OC1)c1ccccc1 . Report value.
A. 45.2

Q. Fill: inhibition in vivo at 20 mg/kg (Mus musculus) for this molecule C[C@@H]1O[C@H](c2ccccc2)OC[C@H]1NC(=O)c1ccccc1
A. 43.9

Q. Retrieve inhibition in vivo at 20 mg/kg on Mus musculus; query O=C(Cc1ccccc1)N[C@H]1CO[C@H](c2cccc([N+](=O)[O-])c2)OC1
A. 42.6

Q. Give inhibition in vivo at 20 mg/kg; test system Mus musculus; molecule O=C(Cc1ccccc1)N[C@H]1CO[C@H](/C=C/c2ccccc2)OC1
A. 29.5
